Data provenance: PubChem BioAssay (NCI)

TEST_PROTOCOL: NCI Yeast Anticancer Drug Screen. Data for the rad50 strain (AID 155);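 note: 0% = growth of vehicle-only cultures of the same strain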
SETTINGS: S. cerevisiae rad50 strain growth inhibition; at 50.0 µM; stronger effect = higher value
This is part of a sample that, as a whole, favours compounds with a hit. Of some 79,000 tested, about 15% had one in any assay.
MEASURED_QUANTITY: growth inhibition (%)

INSERT INTO assay_data (compound, measured_quantity, test_result) VALUES
  ('O=C(NCCCOc1ccc(Cl)c(Cl)c1)NCCc1ccc(Cl)c(Cl)c1', 'growth inhibition', 6.65),
  ('Cc1cc(O)c(C(c2ccc(C#N)cc2)c2c(O)cc(C)[nH]c2=O)c(=O)[nH]1', 'growth inhibition', -1.05),
  ('CCOC(=O)C1C(c2cc(OC)c(OC)c(OC)c2)c2cc3c(cc2OC1(C)N1CCCC1)OCO3 (stereo not given)', 'growth inhibition', 7.15),
  ('O=C(Nc1ccccc1)n1cc(-c2ccccn2)c(N2CCOCC2)n1', 'growth inhibition', -4.6),
  ('CCOC(=O)c1c[nH]c2ccc(-c3ccccc3)cc2c1=O', 'growth inhibition', 4.65);

* * *

TEST_PROTOCOL: NCI Yeast Anticancer Drug Screen. Data for the rad50 strain (AID 155);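 note: 0% = growth of vehicle-only cultures of the same strain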
SETTINGS: S. cerevisiae rad50 strain growth inhibition; at 50.0 µM
Description: Growth inhibition of yeast strains with defined genetic alterations is measured as a screen for potential anti-cancer activity. Selected strains with alterations in DNA damage repair or cell cycle control were exposed to compounds and growth inhibition was measured relative to vehicle treated controls. The strain used in this assay is rad50
The panel holds about 79,000 compounds, 15% with a hit somewhere; the sample as a whole holds those more often. Active and inactive are the calls of the source. Rule as the data show it: active = growth inhibition above about 70%; inactive = the rest.
Classes used: active, inactive

INSERT INTO measurements (molecule, answer_label) VALUES
  ('COC1=C(OC)C(=O)C(C(=O)CCCCC(=O)O)=C(C)C1=O', 'inactive'),
  ('O=C(O)CNC(=O)NC(Cc1ccccc1)C(=O)O (stereo not given)', 'inactive'),
  ('Clc1ccc2ccc3ccc(Cl)nc3c2n1', 'inactive'),
  ('CCCCNCC(=O)Nc1ccc(C(=O)OC(C)C)cc1', 'inactive'),
  ('CCCCCCCCCCCCSSC(=S)OC(C)C', 'inactive'),
  ('O=C(c1ccccc1)c1ccc(OCCOc2ccc(C(=O)c3ccccc3)cc2)cc1', 'inactive'),
  ('NC(=S)n1nc(-c2ccccc2)c(N=Nc2cccc([N+](=O)[O-])c2)c1-c1ccccc1', 'inactive'),
  ('Cn1ccnc1CC(C)(O)c1ccccc1 (stereo not given)', 'inactive'),
  ('CCOC(=O)C/C(C(=O)O)=C(\C)c1ccc2ccccc2c1', 'inactive'),
  ('O=C(Oc1c(Cl)c(Cl)c(Cl)c(Cl)c1Cl)Oc1c(Cl)c(Cl)c(Cl)c(Cl)c1Cl', 'inactive'),
  ('O=C(/C=C/c1ccc(O)cc1)NCCc1c[nH]c2ccc(O)cc12', 'inactive'),
  ('CC(C)(C)c1cc(C#N)cc(Br)c1O', 'active'),
  ('COC(=O)c1ccccc1CC1Cc2c(C)ccc(C)c2C1=O (stereo not given)', 'inactive'),
  ('N#CCCC(CC#N)S(=O)(=O)O (stereo not given)', 'inactive'),
  ('CC(=O)NC(CSCC(=O)c1ccccc1)C(=O)O (stereo not given)', 'inactive'),
  ('Cc1cc(=O)c2c(F)ccc(F)c2[nH]1', 'inactive'),
  ('CCOC(=O)C1=C(C)NC(=O)NC1c1cccc(OC)c1O (stereo not given)', 'inactive'),
  ('S=C(Cc1cccnc1)N1CCOCC1', 'inactive'),
  ('O=C(NCSC1=NCCS1)NCSC1=NCCS1', 'inactive'),
  ('O=C(NC(=S)Nc1ccsc1)c1ccccc1', 'inactive'),
  ('CSc1ccc(C2=CCCCC2)cc1', 'inactive'),
  ('COc1ccc(/C=C/[n+]2ccccc2)cc1OC', 'inactive'),
  ('O=[N+]([O-])C(/C=C(\Cl)[N+](=O)[O-])=C(N1CCOCC1)N1CCOCC1', 'inactive'),
  ('Cc1cc(=O)[nH]c(NN2C(Cl)C(=O)C2c2ccc(Cl)cc2)n1 (stereo not given)', 'inactive'),
  ('O=C(CCc1ccc(O)cc1)c1c(O)cc(O)cc1O', 'inactive');
